test method notes: APR_HepG2_CellLoss_72hr: Apredica 72-hour HepG2 Assay for Cell Loss (AID 2282915)
settings: high-content imaging
Calls of active or inactive are those of the source. How the source made its calls: active means hit-call score of the fitted dose curve at least 0.9, where 1 is the maximum; inactive means score below 0.9.
reported endpoint: AC50

> print(dat)
                                    compound                recorded.measurement
 1  COC(=O)c1c(Cl)nn(C)c1S(=O)(=O)NC(=O)Nc1nc(OC)cc(OC)n1                            inactive
 2                            O=C(O)c1ccccc1                            inactive
 3                c1ccc2[nH]c(-c3cscn3)nc2c1                            inactive
 4                                     COCCO                            inactive
 5  CCOC(=O)C(C)Oc1ccc(Oc2cnc3cc(Cl)ccc3n2)cc1 (stereo not given)                    80.6 µM (active)
 6  C[C@]12C[C@H](O)[C@H]3[C@@H](CCC4=CC(=O)CC[C@@]43C)[C@@H]1CC[C@@H]2C(=O)CO                    32.9 µM (active)
 7             CC(C)(c1ccc(O)cc1)c1ccc(O)cc1  109 µM (active) [middle of 4 runs]
 8  CC(=O)S[C@@H]1CC2=CC(=O)CC[C@]2(C)[C@H]2CC[C@@]3(C)[C@@H](CC[C@@]34CCC(=O)O4)[C@H]12                    39.3 µM (active)
 9  Cc1nn(C)c(Oc2ccccc2)c1C=NOCc1ccc(C(=O)OC(C)(C)C)cc1                    19.8 µM (active)
10  CCCCOC(=O)C(C)Oc1ccc(Oc2ccc(C(F)(F)F)cn2)cc1 (stereo not given)                            inactive

Where do the numbers come from? From PubChem BioAssay (EPA / NIEHS).
